Target: TGF-beta1 (hTGF-beta1) (Homo sapiens, UniProt P01137 P01137:279-390)
Sequence (P01137 279-390, one chain of several): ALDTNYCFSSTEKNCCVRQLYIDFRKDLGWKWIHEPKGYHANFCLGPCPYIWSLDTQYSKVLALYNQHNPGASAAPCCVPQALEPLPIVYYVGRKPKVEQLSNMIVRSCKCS
Assay: filter; monophasic, plateau 8%
Conditions: tags: R&D Systems; biotinylated form (NFTG0) used for BIAcore; chain copies: 2
observation_type: Kd (nM)

binder: 20-04 (ssRNA, 2'-F C and U) RNA: GGGAGGACGAUGCGGUGUCUUUAGCUUAGGUGAUUCCUUCUGCCGCAGACGACUCGCCCGA
observation_type: Kd
observed_result: 0.2
